PROTOCOL TEXT: qHTS of pediatric cancer cell lines to identify multiple opportunities for drug repurposing: Primary screen for NB1643 cells (AID 1347099); further: nearly all actives have a fitted effect of over 50% in size
ASSAY CONTEXT: NB1643 neuroblastoma viability, CellTiter-Glo luminescence, 48 h; series mostly up to 46 µM
Records with an inconclusive call do not appear. The source made the active and inactive calls. The call rests on the fitted dose curve; in most records, active means well fitted cell-killing curve with a large enough effect; inconclusive means small, poorly fitted or top-dose-only effect; inactive means no such curve, though single readings can be large or run the other way.
Pick from yes = active, no = inactive when you respond.

Solved cases (5 shown):
Task item: Outcome logged for CC(C)(C)NC[C@H](O)c1ccc(O)cc1Cl in this assay:
Reply: no

Task item: Also, CCOC(=O)c1cncn1[C@H](C)c1ccccc1 please.
Reply: no

Task item: Also, CC(O)CN1CCN(CC(=O)[O-])CCN(CC(=O)[O-])CCN(CC(=O)[O-])CC1.[Gd+3] (configuration not stated) please.
Reply: no

Task item: Also, CCNC(=O)C[C@@H]1N=C(c2ccc(Cl)cc2)c2cc(OC)ccc2-n2c(C)nnc21 please.
Reply: yes

Task item: Also, COCCOCCO please.
Reply: no

Here's the next entry for you.
Task item: Outcome logged for CCCCOC(=O)c1ccccc1C(=O)OCc1ccccc1 in this assay:
Reply: no

###

Test system: CP217
PROTOCOL TEXT: qHTS profiling for inhibitors of Plasmodium falciparum proliferation (AID 504749); further: nearly all actives have a fitted effect of over 60% in size
ASSAY CONTEXT: P. falciparum in erythrocytes, SYBR Green DNA, 72 h; series mostly up to 28.7 µM
Records with an inconclusive call do not appear. Calls of active or inactive are those of the source. The call rests on the fitted dose curve; in most records, active means well fitted inhibition curve with a large enough effect; inconclusive means small, poorly fitted or top-dose-only effect; inactive means flat fitted curve, though single readings scatter.
Pick from Yes (active), No (inactive) when you respond.

Solved cases (6 shown):
Task item: Outcome logged for NC(=O)CN1CC(O)CC1=O (stereo not drawn) in this assay:
Reply: No

Task item: Also, Cc1ccc(Cl)c(O)c1 please.
Reply: No

Task item: Also, C[C@]12CCC(=O)C(O)=C1CC[C@@H]1[C@H]3CCC(=O)[C@@]3(C)CC[C@@H]12 please.
Reply: No

Task item: Also, C1CCC(NC2CCCCC2)CC1 please.
Reply: No

Task item: Also, CC(C)NC(C)Cc1ccc(I)cc1 (stereo not drawn) please.
Reply: No

Task item: Also, CC(=O)[O][Hg][c]1ccccc1 please.
Reply: Yes

---
Task item: Outcome logged for O=[N+]([O-])c1ccc([As](=O)(O)O)cc1 in this assay:
Reply: Yes

Task item: Also, CCCCCCCCCC(CC)c1ccc(S(=O)(=O)O)cc1 (stereo not drawn) please.
Reply: No

Task item: Also, c1ccc(C2(c3ccccc3)CC2C2=NCCN2)cc1 (stereo not drawn) please.
Reply: No

Task item: Also, Cc1cc(O)ccc1Cl please.
Reply: No

Task item: Also, COC(=O)[C@@H](N)CCCN=C(N)N[N+](=O)[O-] please.
Reply: No

Task item: Also, C#CC1(O)CCC2C3CCC4=CC(=O)CCC4(C)C3CCC21C (stereo not drawn) please.
Reply: No

Task item: Also, O=C(O)COc1ccccc1 please.
Reply: No

###

PROTOCOL TEXT: Cell Viability - LYMP2-025 (AID 976);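 further: cells exposed to compound for 24 h at 37 °C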
ASSAY CONTEXT: LYMP2-025 lymphoblastoid cell viability; series mostly up to 92.2 µM
Inconclusive results are not listed. The source made the active and inactive calls. Calls follow the shape of the dose curve; as a rule, active = well fitted cell-killing curve with a large enough effect; inconclusive = small, poorly fitted or top-dose-only effect; inactive = flat fitted curve, though single readings scatter.
Pick from T for active, F for inactive when you respond.

Task item: Outcome logged for Nc1ccc(Cl)cc1N in this assay:
Reply: F

Task item: Also, CCOP(=O)(NC(C)C)Oc1ccc(SC)c(C)c1 (stereo unspecified) please.
Reply: F

Task item: Also, O=[N+]([O-])c1c2ccccc2cc2ccccc12 please.
Reply: F

Task item: Also, O=S(=O)(c1ccc(Cl)cc1)c1ccc(Cl)cc1 please.
Reply: F

Task item: Also, COC(C)(C)CCCC(C)C/C=C/C(C)=C/C(=O)OC(C)C (stereo unspecified) please.
Reply: F

Task item: Also, CC(=O)[O][Hg][c]1ccccc1 please.
Reply: T

Task item: Also, C=CC(=O)NCNC(=O)C=C please.
Reply: F

Task item: Also, O=[N+]([O-])c1cc([N+](=O)[O-])c2ccccc2c1 please.
Reply: F

Task item: Also, Nc1ccc([N+](=O)[O-])cc1 please.
Reply: F

Task item: Also, Nc1ccc(Sc2ccc(N)cc2)cc1 please.
Reply: F

---
Task item: Outcome logged for CCOCCOC(C)=O in this assay:
Reply: F

Task item: Also, CCCCCCCCc1ccc(O)cc1 please.
Reply: F

Task item: Also, CC(C)(O)C(=O)Nc1ccc([N+](=O)[O-])c(C(F)(F)F)c1 please.
Reply: F

Task item: Also, CN(C)NC(=O)CCC(=O)O please.
Reply: F

Task item: Also, Nc1ccc(Cl)cc1 please.
Reply: F

Task item: Also, Cc1cc(O)ccc1Cl please.
Reply: F
